- Tested on: HS 578T breast
- Experiment Summary: NCI tumour cell line growth inhibition, 48 h
Where a SMILES comes first, the peptide text is derived from it. [ ]: non-standard residue; d: D form. Ava = NCCCCC(=O)O; Mpa = O=C(O)CCS
Readout Kind: TGI

Challenge: Consider the compound CC1OC(NCCNCCNC2OC(C)C(O)C(O)C2O)C(O)C(O)C1O (centres undefined) and give its measured TGI.
Response given: > 100 µM

Challenge: Entry to check: CC(NC(=O)CCS)C(=O)NC(C)C(=O)NC(Cc1c[nH]c2ccccc12)C(=O)NC(Cc1c[nH]cn1)C(=O)NC(CO)C(=O)NC(Cc1c[nH]c2ccccc12)C(=O)NCCCCC(=O)NC(C)C(=O)NC(CCC(N)=O)C(=O)NC(CCCCN)C(=O)NC(C)C(=O)NC(CCCNC(=N)N)C(=O)NC(CCCCN)C(N)=O (centres undefined) ([Mpa]AAWHSW[Ava]AQKARK-NH2; configuration not given here)
Response given: > 100 µM

Challenge: Entry to check: `CCN(CC)Cc1cc(N=Nc2c(O)ccc3c(N=Nc4ccc(O)c(CN(CC)CC)c4)c(O)ccc23)ccc1O`
Response given: > 38.7 µM

Challenge: Entry to check: `CNC(=O)[C@H](Cc1c[nH]c2ccccc12)NC(=O)[C@@H](CC(=O)NO)CC(C)C`
Response given: > 25 µM

---

- Test system: DU-145 prostate
- Experiment Summary: NCI tumour cell line growth inhibition, 48 h
Readout Kind: TGI

Challenge: Consider the compound CN1C/C(=C\c2cccs2)C2=NN(c3ccccc3)C(c3cccs3)C2C1 (stereo not drawn) and give its measured TGI.
Response given: > 58.2 µM

Challenge: Entry to check: CCCC(=O)OCC1OC(n2cc(F)c(=O)[nH]c2=O)CC1OC(=O)CCC (stereo not drawn)
Response given: > 2.62 µM

Challenge: Entry to check: C=C1C(=O)OC2CC1C(OC(=O)/C=C/c1ccccc1)C/C(C)=C/CC/C(C)=C/CCC2(C)O (stereo not drawn)
Response given: 2.77 µM

Challenge: Entry to check: `O=C(CCCc1cccc2[nH]c3c(c12)CN(Cc1ccccc1)CC3)c1ccc(F)cc1`
Response given: > 100 µM

Challenge: Entry to check: `O=C(O)c1ccc2c(O)c(O)ccc2c1`
Response given: > 100 µM

Challenge: Entry to check: `CCN(Cc1cc(Cl)cc(C)c1O)Cc1c(O)ccc2ccccc12`
Response given: 34.7 µM

Challenge: Entry to check: Nc1cc(C2CCCc3c2[nH]c2ccccc32)ccc1O (stereo not drawn)
Response given: > 100 µM

Challenge: Entry to check: `COc1cc(/C=C/C(=O)c2c(C)n([O-])c3ccccc3[n+]2=O)cc(OC)c1OC`
Response given: 13.5 µM

---

- Tested on: COLO 205 colon
- Experiment Summary: NCI tumour cell line growth inhibition, 48 h
Readout Kind: log10 TGI (log10 of the value in µM)
Recall that a logarithmic scale is used here: each number is log10 of TGI in µM.

Challenge: Record lookup: for COLO 205 colon, what log10 TGI belongs to `CN(C)CCNC(=O)c1cccc2c1C(=O)c1ccccc1C2=O` ?
Response given: 1.53

Challenge: Entry to check: `COc1ccc2c(c1)/C(=C\c1c(Cl)nc3n1CCS3)C(=O)N2`
Response given: 1.04

Challenge: Entry to check: `O=C1/C(=C/c2ccc(F)cc2)COc2ccc(O)c(O)c21`
Response given: 1.01

Challenge: Entry to check: `O=C(Nc1cc(Cl)c(I)c(Cl)c1)C(F)(F)F`
Response given: 1.73

Challenge: Entry to check: `COc1ccc(Cn2cc3c(c2-c2ccccc2)CCc2cnoc2-3)cc1`
Response given: -0.40

Challenge: Entry to check: `Nc1n[n+]([O-])c2ccc(Cl)cc2[n+]1[O-]`
Response given: 1.49

---

- System: XF 498 CNS
- Experiment Summary: NCI tumour cell line growth inhibition, 48 h
Exercise: for every item that follows, state its recorded TGI.

Challenge: Record lookup: for XF 498 CNS, what TGI belongs to `Cc1ccc(C(=O)Nc2ccc(S(=O)(=O)O)c3cc(S(=O)(=O)O)cc(S(=O)(=O)O)c23)cc1NC(=O)c1cccc(NC(=O)Nc2cccc(C(=O)Nc3cc(C(=O)Nc4ccc(S(=O)(=O)O)c5cc(S(=O)(=O)O)cc(S(=O)(=O)O)c45)ccc3C)c2)c1` ?
Response given: 90.5 µM

Challenge: Entry to check: `O=C1NC(c2ccccc2)(c2ccccc2)C(=O)N1CCCCCCN1C(=O)NC(c2ccccc2)(c2ccccc2)C1=O`
Response given: 30.9 µM

Challenge: Entry to check: `COc1ccc2nc3cc(Cl)ccc3c(Sc3ccc(N)cc3)c2c1`
Response given: 27.5 µM

Challenge: Entry to check: `COc1ccc(-c2cc(=O)c3c(O)c(O)c(OC)cc3o2)cc1O`
Response given: > 100 µM

Challenge: Entry to check: C=CC[P@]1(=O)O[C@H](c2ccccc2)C(C)N1C(C)C (some centres not stated)
Response given: > 100 µM

Challenge: Entry to check: `COc1ccc2nc3cc(Cl)ccc3c(Nc3ccccc3-c3ccccc3Nc3c4ccc(Cl)cc4nc4ccc(OC)cc34)c2c1`
Response given: > 76.2 µM

Challenge: Entry to check: `O=C(n1c2ccccc2c2n[nH]c(=S)nc21)C(F)(F)F`
Response given: > 100 µM

Challenge: Entry to check: `COc1ccc2c(c1OC)C(=O)C2`
Response given: > 100 µM

Challenge: Entry to check: N#CN1CC[C@@H]2CC3(CCC2C1)OCCO3 (some centres not stated)
Response given: > 100 µM

Challenge: Entry to check: `CC(C)(C)C1=CC(=N/N=c2\scc(-c3ccccc3)n2Cc2ccccc2)C=C(C(C)(C)C)C1=O`
Response given: > 100 µM

Challenge: Entry to check: `COCN1COCN(C)C1=O`
Response given: > 100 µM

Challenge: Entry to check: `COc1ccccc1/C=C1\C(=O)N(C(=O)Cc2ccccc2)N=C1C`
Response given: > 100 µM

---

- Test system: ACHN renal
- Experiment Summary: NCI tumour cell line growth inhibition, 48 h
Exercise: for every item that follows, state its recorded TGI.

Challenge: Record lookup: for ACHN renal, what TGI belongs to `O=C(N/N=C\c1ccc(Cl)cc1)Nc1ccc2ccccc2c1` ?
Response given: > 100 µM

Challenge: Entry to check: `COc1ccc2c(c1OC)C(=O)C2`
Response given: > 100 µM

Challenge: Entry to check: `CN(c1cccc(C(=O)O)c1)c1cc(O/N=[N+](\[O-])N(C)C)c([N+](=O)[O-])cc1[N+](=O)[O-]`
Response given: > 100 µM

---

- System: MDA-MB-435
Readout Kind: GI50

Challenge: Consider the compound `COc1ccc(C2=Nn3c(nnc3-c3ccc(F)c(Cl)c3)SC2)cc1` and give its measured GI50.
Response given: > 100 µM

Challenge: Entry to check: `CN(C)S(=O)(=O)c1cccc(C(=O)Nc2nc(-c3ccc(F)c(F)c3)cs2)c1`
Response given: 5.41 µM

Challenge: Entry to check: `CN(c1cccc(C(=O)O)c1)c1cc(O/N=[N+](\[O-])N(C)C)c([N+](=O)[O-])cc1[N+](=O)[O-]`
Response given: > 100 µM

---

- Test system: NCI-H23 lung
- Experiment Summary: NCI tumour cell line growth inhibition, 48 h
Exercise: for every item that follows, state its recorded GI50.

Challenge: Record lookup: for NCI-H23 lung, what GI50 belongs to `Nc1[nH]nc(Nc2ccccc2)c1-c1nc2ccccc2s1` ?
Response given: 1730 nM

Challenge: Entry to check: `O=C(O)CCCN1C(=O)/C(=C/C(Cl)=C/c2ccccc2)SC1=S`
Response given: 2340 nM

Challenge: Entry to check: `COc1ccc(-n2cc(-c3cc(OC)c(OC)c(OC)c3)nc2SCc2cccc(C#N)c2)cc1OC`
Response given: > 100000 nM

---

- Tested on: KM12 colon
- Experiment Summary: NCI tumour cell line growth inhibition, 48 h
Readout Kind: TGI

Challenge: Consider the compound `COC(=O)CNC(=O)C(=O)c1c(O)c(O)c(C(C)C)c2cc(C)c(-c3c(C)cc4c(C(C)C)c(O)c(O)c(C(=O)C(=O)NCC(=O)OC)c4c3O)c(O)c12` and give its measured TGI.
Response given: 7.29 µM

Challenge: Entry to check: CC1=C(C)C(=O)OC(C(C)(O)C2(O)CC3OC34C3CC(O)C56OC5C=CC(=O)C6(C)C3CCC42C)C1 (centres undefined)
Response given: 7.54 µM

Challenge: Entry to check: `Cc1cn(S(=O)(=O)c2ccccc2)c2c(OCc3ccccc3)cc([N+](=O)[O-])cc12`
Response given: > 100 µM

Challenge: Entry to check: CC(C#N)(NO)C(C)(C#N)NO (centres undefined)
Response given: > 100 µM

Challenge: Entry to check: `Cc1cccc2c(=O)c3cccc([C@H](C)C(=O)O)c3oc12`
Response given: > 100 µM

Challenge: Entry to check: CCOC(CBr)OC1C(=O)OCC1(C)C (centres undefined)
Response given: > 100 µM

Challenge: Entry to check: `Cc1c(C)c2cc3c(=O)c(CCl)coc3c(C)c2oc1=O`
Response given: > 100 µM

Challenge: Entry to check: `COC(=O)[C@@]12CSC[C@]1(C(=O)OC)N[C@@H](c1ccccc1O)C2`
Response given: > 100 µM

Challenge: Entry to check: Cc1cc(=O)[nH]c2cc(NC(=O)C(C)NC(=O)C(C)NC(=O)C(C)NC(=O)OC(C)(C)C)ccc12 (centres undefined)
Response given: > 15 µM

Challenge: Entry to check: `Cc1cc(C)c2c(=N)c3ccccc3n(CCCCCCCCn3c4ccccc4c(=N)c4c(C)cc(C)nc43)c2n1`
Response given: 1.42 µM

Challenge: Entry to check: `CS(=O)(=O)OCCN(CCOS(C)(=O)=O)c1ccc(C=Nc2ccc(-c3csc(Cc4ccccc4)n3)cc2)c(Cl)c1`
Response given: > 63.9 µM

Challenge: Entry to check: `C/C(Cc1ccc2c(c1)OCO2)=N\N=c1\sc2ccccc2n1C`
Response given: > 100 µM

Challenge: Entry to check: `CCO/N=C\c1ccc2oc(-c3ccccc3)cc(=O)c2c1`
Response given: 11.1 µM

Challenge: Entry to check: `CCCC(=O)Oc1ccc(/C(=C(\C)c2ccc(Cl)cc2)c2ccc(OCCN(CC)CC)cc2)cc1`
Response given: 10.7 µM

Challenge: Entry to check: `Cc1[nH]n(-c2nc(-c3ccccc3)cc(=O)[nH]2)c(=O)c1CCO`
Response given: > 100 µM

Challenge: Entry to check: `O=C(Cn1c2ccc(Br)cc2c2nc3ccccc3nc21)NCc1ccccc1`
Response given: > 100 µM

Challenge: Entry to check: `CN(C)CCCNc1ccnc2c([N+](=O)[O-])cccc12`
Response given: > 100 µM

Challenge: Entry to check: `O=C(O)CCCN1C(=O)/C(=C/C(Cl)=C/c2ccccc2)SC1=S`
Response given: 3.54 µM

Challenge: Entry to check: CC1=NNC(=O)C1C1(C(=O)O)CC(c2c[nH]c3ccccc23)=NC(=S)N1 (centres undefined)
Response given: 36.9 µM
